Some molecules, each annotated with its measured inhibition at 20 µM.
# System: BXPC-3
# Measurement notes: Antiproliferative activity against human BxPC3 cells at 20 uM after 72 hrs by MTT assay
# Type: functional
# Assay conditions: BXPC-3, 72 h

>  <Input smiles>
O=C1c2ccccc2C(=O)c2c(OCCOCCO)ccc(OCCOCCO)c21

>  <System under test>
BXPC-3

>  <Unit info>
%

>  <inhibition at 20 µM>
23.1

$$$$
>  <Input smiles>
Cc1ccc(S(=O)(=O)Oc2ccc(OCCOCCOCCO)c3c2C(=O)c2ccccc2C3=O)cc1

>  <System under test>
BXPC-3

>  <Unit info>
%

>  <inhibition at 20 µM>
15.3

$$$$
>  <Input smiles>
O=C1c2ccccc2C(=O)c2c(OCCOCCOCCO)ccc(OCCOCCOCCO)c21

>  <System under test>
BXPC-3

>  <Unit info>
%

>  <inhibition at 20 µM>
17.5

$$$$
>  <Input smiles>
COc1ccc(CNc2ccc(OS(=O)(=O)c3ccc(C)cc3)c3c2C(=O)c2ccccc2C3=O)cc1

>  <System under test>
BXPC-3

>  <Unit info>
%

>  <inhibition at 20 µM>
91.5

$$$$
>  <Input smiles>
Cc1ccc(S(=O)(=O)Oc2ccc(OCCOCCO)c3c2C(=O)c2ccccc2C3=O)cc1

>  <System under test>
BXPC-3

>  <Unit info>
%

>  <inhibition at 20 µM>
14.5

$$$$
>  <Input smiles>
Cc1ccc(S(=O)(=O)Oc2ccc(NCc3ccc(N)cc3)c3c2C(=O)c2ccccc2C3=O)cc1

>  <System under test>
BXPC-3

>  <Unit info>
%

>  <inhibition at 20 µM>
94

$$$$
>  <Input smiles>
COc1cccc2c1C(=O)c1c(O)c3c(c(O)c1C2=O)C[C@@](O)(C(=O)CO)C[C@@H]3O[C@H]1C[C@H](N)[C@H](O)[C@H](C)O1

>  <System under test>
BXPC-3

>  <Unit info>
%

>  <inhibition at 20 µM>
96.2

$$$$
>  <Input smiles>
Cc1ccc(S(=O)(=O)Oc2ccc(OCCOCCOCCOCCO)c3c2C(=O)c2ccccc2C3=O)cc1

>  <System under test>
BXPC-3

>  <Unit info>
%

>  <inhibition at 20 µM>
11.8

$$$$
>  <Input smiles>
Cc1ccc(S(=O)(=O)Oc2ccc(NCc3ccc(Cl)cc3)c3c2C(=O)c2ccccc2C3=O)cc1

>  <System under test>
BXPC-3

>  <Unit info>
%

>  <inhibition at 20 µM>
85.2

$$$$

----------
# Test system: PC-3
# Measurement notes: Antiproliferative activity against human PC3 cells after 72 hrs by MTT assay
# Type: functional, cell-based
# Assay conditions: PC-3, 72 h
Some compounds, each annotated with its measured IC50.
Readout: IC50 (µM)

>  <Input smiles>
COc1cccc2c1C(=O)c1c(O)c3c(c(O)c1C2=O)C[C@@](O)(C(=O)CO)C[C@@H]3O[C@H]1C[C@H](N)[C@H](O)[C@H](C)O1

>  <Readout>
IC50

>  <Relation qualifier>
=

>  <Observed result>
1

$$$$
>  <Input smiles>
Cc1ccc(S(=O)(=O)Oc2ccc(NCc3ccc(N)cc3)c3c2C(=O)c2ccccc2C3=O)cc1

>  <Readout>
IC50

>  <Relation qualifier>
=

>  <Observed result>
6.5

$$$$
>  <Input smiles>
COc1ccc(CNc2ccc(OS(=O)(=O)c3ccc(C)cc3)c3c2C(=O)c2ccccc2C3=O)cc1

>  <Readout>
IC50

>  <Relation qualifier>
=

>  <Observed result>
8

$$$$
>  <Input smiles>
Cc1ccc(S(=O)(=O)Oc2ccc(NCc3ccc(Cl)cc3)c3c2C(=O)c2ccccc2C3=O)cc1

>  <Readout>
IC50

>  <Relation qualifier>
>

>  <Observed result>
20

$$$$

----------
Some compounds, each annotated with its measured inhibition at 20 µM.
# System: DU-145
# Measurement notes: Antiproliferative activity against human DU145 cells at 20 uM after 72 hrs by MTT assay
# Type: functional
# Assay conditions: DU-145, 72 h
Readout: inhibition at 20 µM

>  <Compound>
Cc1ccc(S(=O)(=O)Oc2ccc(NCc3ccc(N)cc3)c3c2C(=O)c2ccccc2C3=O)cc1

>  <Observed result>
87.2%

$$$$
>  <Compound>
COc1cccc2c1C(=O)c1c(O)c3c(c(O)c1C2=O)C[C@@](O)(C(=O)CO)C[C@@H]3O[C@H]1C[C@H](N)[C@H](O)[C@H](C)O1 [DOXORUBICIN]

>  <Observed result>
80.6%

$$$$
>  <Compound>
Cc1ccc(S(=O)(=O)Oc2ccc(OCCOCCO)c3c2C(=O)c2ccccc2C3=O)cc1

>  <Observed result>
9%

$$$$
>  <Compound>
O=C1c2ccccc2C(=O)c2c(OCCOCCO)ccc(OCCOCCO)c21

>  <Observed result>
10%

$$$$
>  <Compound>
O=C1c2ccccc2C(=O)c2c(OCCOCCOCCO)ccc(OCCOCCOCCO)c21

>  <Observed result>
17.7%

$$$$
>  <Compound>
COc1ccc(CNc2ccc(OS(=O)(=O)c3ccc(C)cc3)c3c2C(=O)c2ccccc2C3=O)cc1

>  <Observed result>
62.2%

$$$$
>  <Compound>
Cc1ccc(S(=O)(=O)Oc2ccc(OCCOCCOCCOCCO)c3c2C(=O)c2ccccc2C3=O)cc1

>  <Observed result>
21.6%

$$$$
>  <Compound>
Cc1ccc(S(=O)(=O)Oc2ccc(NCc3ccc(Cl)cc3)c3c2C(=O)c2ccccc2C3=O)cc1

>  <Observed result>
69.1%

$$$$
>  <Compound>
Cc1ccc(S(=O)(=O)Oc2ccc(OCCOCCOCCO)c3c2C(=O)c2ccccc2C3=O)cc1

>  <Observed result>
16.8%

$$$$

----------
# Tested on: NCI/ADR-RES
# Measurement notes: Antiproliferative activity against human NCI/ADR-RES cells at 20 uM after 72 hrs by MTT assay
# Type: functional
Think of 50% as a floor: if inhibition at 20 µM stands on it or above, it is 1; beneath it, 0.

>  <Input smiles>
COc1ccc(CNc2ccc(OS(=O)(=O)c3ccc(C)cc3)c3c2C(=O)c2ccccc2C3=O)cc1

>  <Classification>
1

$$$$
>  <Input smiles>
O=C1c2ccccc2C(=O)c2c(OCCOCCO)ccc(OCCOCCO)c21

>  <Classification>
0

$$$$
>  <Input smiles>
Cc1ccc(S(=O)(=O)Oc2ccc(OCCOCCOCCOCCO)c3c2C(=O)c2ccccc2C3=O)cc1

>  <Classification>
0

$$$$
>  <Input smiles>
Cc1ccc(S(=O)(=O)Oc2ccc(NCc3ccc(N)cc3)c3c2C(=O)c2ccccc2C3=O)cc1

>  <Classification>
1

$$$$
>  <Input smiles>
O=C1c2ccccc2C(=O)c2c(OCCOCCOCCO)ccc(OCCOCCOCCO)c21

>  <Classification>
0

$$$$

----------
# Test system: LNCaP
# Measurement notes: Antiproliferative activity against human LNCAP cells after 72 hrs by MTT assay
# Assay type: functional, cell-based
pIC50: −log10 of the molar value.
Some compounds, each annotated with its measured pIC50.

>  <Input smiles>
COc1cccc2c1C(=O)c1c(O)c3c(c(O)c1C2=O)C[C@@](O)(C(=O)CO)C[C@@H]3O[C@H]1C[C@H](N)[C@H](O)[C@H](C)O1

>  <pIC50>
6.70

$$$$
>  <Input smiles>
Cc1ccc(S(=O)(=O)Oc2ccc(NCc3ccc(N)cc3)c3c2C(=O)c2ccccc2C3=O)cc1

>  <pIC50>
6.40

$$$$
>  <Input smiles>
Cc1ccc(S(=O)(=O)Oc2ccc(NCc3ccc(Cl)cc3)c3c2C(=O)c2ccccc2C3=O)cc1

>  <pIC50>
5.62

$$$$
>  <Input smiles>
COc1ccc(CNc2ccc(OS(=O)(=O)c3ccc(C)cc3)c3c2C(=O)c2ccccc2C3=O)cc1

>  <pIC50>
6.05

$$$$

----------
# System: OVCAR-8
# Measurement notes: Antiproliferative activity against human OVCAR8 cells at 20 uM after 72 hrs by MTT assay
# Format: functional
# Assay conditions: OVCAR-8, 72 h
Readout: inhibition at 20 µM (%)

>  <Input smiles>
O=C1c2ccccc2C(=O)c2c(OCCOCCO)ccc(OCCOCCO)c21

>  <Observed result>
3.4

$$$$
>  <Input smiles>
Cc1ccc(S(=O)(=O)Oc2ccc(OCCOCCO)c3c2C(=O)c2ccccc2C3=O)cc1

>  <Observed result>
8.5

$$$$
>  <Input smiles>
Cc1ccc(S(=O)(=O)Oc2ccc(OCCOCCOCCOCCO)c3c2C(=O)c2ccccc2C3=O)cc1

>  <Observed result>
5.5

$$$$
>  <Input smiles>
Cc1ccc(S(=O)(=O)Oc2ccc(NCc3ccc(N)cc3)c3c2C(=O)c2ccccc2C3=O)cc1

>  <Observed result>
85.4

$$$$
>  <Input smiles>
COc1ccc(CNc2ccc(OS(=O)(=O)c3ccc(C)cc3)c3c2C(=O)c2ccccc2C3=O)cc1

>  <Observed result>
58.2

$$$$
>  <Input smiles>
O=C1c2ccccc2C(=O)c2c(OCCOCCOCCO)ccc(OCCOCCOCCO)c21

>  <Observed result>
37.4

$$$$
>  <Input smiles>
COc1cccc2c1C(=O)c1c(O)c3c(c(O)c1C2=O)C[C@@](O)(C(=O)CO)C[C@@H]3O[C@H]1C[C@H](N)[C@H](O)[C@H](C)O1

>  <Observed result>
86

$$$$
>  <Input smiles>
Cc1ccc(S(=O)(=O)Oc2ccc(NCc3ccc(Cl)cc3)c3c2C(=O)c2ccccc2C3=O)cc1

>  <Observed result>
64.4

$$$$
>  <Input smiles>
Cc1ccc(S(=O)(=O)Oc2ccc(OCCOCCOCCO)c3c2C(=O)c2ccccc2C3=O)cc1

>  <Observed result>
13.1

$$$$
